Assay: AP1 Signaling Pathway (AID 357);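 note: ME-180 reporter cells stimulated with EGF at its EC50 level; % is set by controls: 0 for no effect and ±100 for the full control effect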
Conditions: ME-180 AP-1-bla reporter, EGF-induced, beta-lactamase ratio, 5 h; at 17.2 µM (top of the series) unless noted
Results filed as inconclusive are left out. Activity calls are given as the source filed them. Calls come from the whole dose curve; as a rule, active = well fitted curve in either direction with a large enough effect (not every such curve was filed as active); inconclusive = small, poorly fitted or top-dose-only effect, or another doubt; inactive = flat fitted curve, though single readings scatter.
// reported activity change, negative = inhibition for each item listed
measured.quantity: activity change, negative = inhibition

> print(dat)
                                   compound                       measured.quantity  experimental.value
1  CC(=O)C1(C)OC(N)=C(C#N)C(c2ccccc2)C1(C#N)C#N (configuration not stated)  activity change, negative = inhibition    13.9% (inactive)
2             O=c1[nH]cnc2cc(-c3ccccc3)sc12  activity change, negative = inhibition   -9.08% (inactive)
3  Oc1ccc2c(c1)C1CCCC1(N1CCOCC1)O2 (configuration not stated)  activity change, negative = inhibition   -13.6% (inactive)
4  CC1(C(=O)CSc2nc3ccccc3s2)CCC(=O)O1 (configuration not stated)  activity change, negative = inhibition   -6.34% (inactive)
5        Cc1ccc2cc(CNC(C)(C)C)c(=O)[nH]c2c1  activity change, negative = inhibition    2.11% (inactive)
6  COc1ccc2[nH]c(C)c(C(=O)CN3CC(C)OC(C)C3)c2c1 (configuration not stated)  activity change, negative = inhibition   0.748% (inactive)
7                     Nc1ccc2c3c(cccc13)CC2  activity change, negative = inhibition   0.829% (inactive)

* * *

Assay: qHTS assay for small molecule disruptors of the mitochondrial membrane potential - 1 hr assay (AID 651754); note: nearly all actives have a fitted effect of over 35% in size
Details: series mostly up to 92.2 µM
Records with an inconclusive call do not appear. Activity calls are given as the source filed them. The call rests on the fitted dose curve.
Possible outcomes: true = active, false = inactive

> print(dat)
                                   molecule  category.label
1                            C=C(C)c1ccccc1           false
2                   C=CC(=O)OCCOCCOC(=O)C=C           false
3  O=C(/C=C/c1ccc(O)c(O)c1)OC1C[C@](O)(C(=O)O)C[C@@H](O)[C@H]1O (stereo not given in full)           false
4                     Nc1ccc2cc3ccccc3cc2c1            true
5  O=C1OC(O)C(C(Cl)Cl)=C1Cl (stereo not given)           false

* * *

Tested on: FAB9
Test: qHTS profiling for inhibitors of Plasmodium falciparum proliferation (AID 504749); note: nearly all actives have a fitted effect of over 60% in size
Settings: P. falciparum in erythrocytes, SYBR Green DNA, 72 h; series mostly up to 28.7 µM
Inconclusive results are not listed. The source made the active and inactive calls. Calls come from the whole dose curve; as a rule, active = well fitted inhibition curve with a large enough effect; inconclusive = small, poorly fitted or top-dose-only effect; inactive = flat fitted curve, though single readings scatter.
Possible outcomes: active, inactive

compound	category.label
CN[C@H](C)CCC=C(C)C	active
CC1OC(OC2C(O)CC(OC3C(O)CC(OC4CCC5(C)C(CCC6C5CCC5(C)C(C7=CC(=O)OC7)CCC65O)C4)OC3C)OC2C)CC(O)C1O (stereo not drawn)	inactive
CO/N=C(/C(=O)N[C@@H]1C(=O)N2C(C(=O)O)=C(CSC(=O)c3ccco3)CSC12)c1csc(N)n1 (stereo partly drawn)	inactive
COC1CC2CCC(C)[C@](O)(O2)C(=O)C(=O)N2CCCCC2C(=O)OC(C(C)CC2CCC(O)C(OC)C2)CC(=O)C(C)/C=C(/C)C(O)C(OC)C(=O)C(C)CC(C)C=CC=C/C=C\1C (stereo partly drawn)	active
CCN(CC)CC(=O)Nc1c(C)cc(C)cc1C	inactive
O=C1[C@@H]2C[C@@H]3C[C@H]1C[C@@](O)(C3)C2	inactive
C[N+]12CCCC[C@@H]1CCC(=C(c1cccs1)c1cccs1)C2 (stereo partly drawn)	active
O=C1C(I)=CC(=C(c2cc(I)c(O)c(I)c2)c2ccccc2C(=O)O)C=C1I	inactive
C#C[C@@]1(O)CC[C@@H]2[C@H]3CCC4=C/C(=N\O)CC[C@H]4[C@@H]3CC[C@]21CC	inactive
C[C@H]1OC(OC2C(O)[C@@H](O)C(OC3C(O)[C@@H](O)C(O)O[C@@H]3CO)O[C@@H]2CO)[C@H](O)C(O)C1N[C@H]1C=C(CO)[C@@H](O)[C@H](O)C1O (stereo partly drawn)	inactive
CN1[C@H]2CC(OC(=O)[C@H](CO)c3ccccc3)C[C@H]1[C@H]1O[C@H]12 (stereo partly drawn)	inactive
C[C@@H]1CCN(C(=O)[C@H](CCCNC(=N)N)NS(=O)(=O)c2cccc3c2NC[C@H](C)C3)[C@@H](C(=O)O)C1	inactive
C=C1CCC(O)C/C1=C/C=C1\CCC[C@]2(C)[C@@H]([C@H](C)/C=C/[C@H](C)C(C)C)CC[C@@H]12 (stereo partly drawn)	inactive
NCCCCC(N)C(=O)O (stereo not drawn)	inactive
O=c1[nH]c(=O)n(C2C[C@H](O)[C@@H](CO)O2)cc1C(F)(F)F (stereo partly drawn)	inactive
COc1cc2c(cc1O)CCN[C@@]21CS[C@H]2c3c(OC(C)=O)c(C)c4c(c3C(COC1=O)N1C2C2c3c(cc(C)c(OC)c3O)CC([C@@H]1O)N2C)OCO4 (stereo partly drawn)	active
CC(=O)N1CC(O)CC1C(=O)O (stereo not drawn)	inactive
OC[C@@H](O)C(O[C@@H]1O[C@@H](CO)[C@H](O)[C@H](O)[C@H]1O)[C@H](O)[C@@H](O)CO (stereo partly drawn)	inactive
O=C1CC[C@H](C(=O)N[C@@H]2C[C@H]2c2ccccc2)N1	inactive
NC[C@@H]1O[C@H](OC2[C@@H](CO)O[C@@H](OC3[C@H](O)[C@H](N)C[C@H](N)[C@H]3OC3O[C@H](CO)[C@@H](O)[C@H](O)[C@@H]3N)[C@H]2O)C(N)[C@H](O)[C@@H]1O (stereo partly drawn)	inactive
CC(=O)C1(O)Cc2c(O)c3c(c(O)c2C(OC2CC(N)C(O)C(C)O2)C1)C(=O)c1c(O)cccc1C3=O (stereo not drawn)	active
C=C1CC[C@H](O)C/C1=C/C=C1\CCC[C@]2(C)[C@@H]([C@H](C)CCCC(C)(C)O)CC[C@@H]12	inactive
CC1(Cn2ccnn2)[C@H](C(=O)O)N2C(=O)C[C@H]2S1(=O)=O (stereo partly drawn)	inactive

* * *

Assay: NFAT Signaling Pathway (AID 444);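 note: carbachol stimulus at about its EC50 of 1 µM final; % is set by controls: 0 for no effect and ±100 for the full control effect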
Conditions: Jurkat NFAT-bla M1, carbachol, beta-lactamase ratio, 5 h; at 17.2 µM (top of the series) unless noted
Records with an inconclusive call do not appear.
measured.quantity: activity change, negative = inhibition (%)

> print(dat)
                                   molecule  experimental.value
1            O=C(c1ccccc1)n1c(=S)nc2ccccn21                 -14
2      OCCN=C(c1ccccc1)C12CN3CN(CN(C3)C1)C2               -21.4
3           Oc1oc(-c2ccccc2)nc1C=NCc1ccncc1               -8.61
4  CC(=O)Oc1ccccc1C1OC(=O)c2ccccc2N1C(C)=O (stereo not given)                12.4
5           Cc1cc(C)n(S(=O)(=O)Cc2ccccc2)n1               -1.74

* * *

Assay: Stat Signaling Pathway (AID 446);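 note: ME-180 cervical cancer cells given 40 pM IL-6 alongside compound; SIE-controlled beta-lactamase reporter measured as 460/530 nm FRET emission ratio; % is set by controls: 0 for no effect and ±100 for the full control effect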
Settings: ME-180 (cervical carcinoma) SIE beta-lactamase reporter, IL-6 stimulated, 5 h; at 17.2 µM (top of the series) unless noted
Inconclusive results are not listed. Calls of active or inactive are those of the source. The call rests on the fitted dose curve; in most records, active means well fitted curve in either direction with a large enough effect (not every such curve was filed as active); inconclusive means small, poorly fitted or top-dose-only effect, or another doubt; inactive means flat fitted curve, though single readings scatter.
// reported activity, negative = inhibition for each item listed
measured.quantity: activity, negative = inhibition

> print(dat)
                                    molecule            experimental.value
 1  Fc1ccc(C2C3=C(Nc4ncnn42)c2ccccc2OC3c2ccncc2)cc1 (configuration not stated)             -12.3% (inactive)
 2  COCc1[nH]nc2c1C(c1ccnc3ccccc13)C(C#N)=C(N)O2 (configuration not stated)             -1.49% (inactive)
 3  CN(C)S(=O)(=O)Nc1ccc(NS(=O)(=O)N(C)C)c(S(=O)(=O)c2ccccc2)c1              21.4% (inactive)
 4    COc1ccc(-c2nn3c(-c4ccccn4)nnc3s2)cc1OC             -2.76% (inactive)
 5  CN(C)C(CN1C(=O)C2CC=CCC2C1=O)c1cn(C)c2ccccc12 (configuration not stated)             -3.79% (inactive)
 6  Cc1ccc(N2C(=O)C3ON(c4ccccc4)C(c4ccncc4)C3C2=O)c(C)c1 (configuration not stated)             0.652% (inactive)
 7                CN(C)CCOC(=O)Cc1ccc(Cl)cc1             -4.76% (inactive)
 8  CCC12CN3CC(CC)(CN(C1)C3c1c(O)ccc3ccccc13)C2=O (configuration not stated)             -7.82% (inactive)
 9        COc1cc(C)nc(Nc2nc(C)c(C(C)=O)s2)n1               4.9% (inactive)
10                C/C(=N\O)c1c(C)c2ccccc2n1C              4.84% (inactive)
11                 C/C(=N\O)C(=O)NCCCn1ccnc1              16.8% (inactive)
12  CCCOC(=O)C1[C@H]2C(=O)N(Cc3ccco3)C[C@]23C=C[C@H]1O3 (some centres not stated)              4.93% (inactive)
13  Nc1ccn([C@@H]2O[C@@H](CO)[C@@H](O)[C@H]2O)c(=O)n1     19% [at 38 µM] (inactive)
14  OC[C@@H]1O[C@@H](n2cnc3c(NCCc4ccccc4)ncnc32)[C@@H](O)[C@H]1O  0.109% [at 38 µM] (inactive)
15  COC(=O)c1cc2c(=O)n3cccc(C)c3nc2n(Cc2cccnc2)c1=N              15.4% (inactive)
16       O=c1c2c3c(sc2n2cnnc2n1C1CCCCC1)CCC3              22.2% (inactive)
17         N#Cc1nc(COc2ccc(Br)cc2)oc1N1CCCC1              3.52% (inactive)
18    CCOC(=O)c1ccc(NC(=O)Cn2nnc3ccccc32)cc1               -15% (inactive)
19              Nc1nnnn1CC(=O)OCc1cccc(Br)c1              12.3% (inactive)
20  O=C1CC(c2ccco2)CC(O)=C1C=NCCN1CCN(C2CC(=O)N(c3ccccc3)C2=O)CC1 (configuration not stated)           -0.0328% (inactive)
21    CC(C)Cc1[nH]c(=O)c(C#N)c2c1COC(C)(C)C2              2.18% (inactive)
22  Cc1ccc(N2CN=c3s/c(=C\c4cccnc4)c(=O)n3C2)cc1             -5.47% (inactive)
23  Cc1cc(C(F)(F)F)nn1CC(=O)NCC1CCCO1 (configuration not stated)              3.03% (inactive)
24      CSC1=Nc2sc3c(c2C2=NCCN12)CC(C)(C)OC3              14.3% (inactive)
25               C=CCn1c(-c2ccccc2)n[nH]c1=S              3.46% (inactive)
26              CCOc1ccccc1C(=O)NCCCCCC(=O)O              6.07% (inactive)
27           Cc1cc(C)n(S(=O)(=O)Cc2ccccc2)n1              14.5% (inactive)

Source listed as PubChem BioAssay (NCATS).
